test: Pharmacokinetic study in mice; conditions: female, C57BL/6, mouse, liver, intraperitoneal, 20 mg/kg
quantity.measured: concentration at 12 h (µM)

[[record]]
compound = "Cc1cn(-c2cc(N/N=C(\\C#N)C(=O)c3cc4ccccc4o3)cc(C(F)(F)F)c2)cn1"
reading = 13


---

assay: Hepatic microsomal stability; type: in vitro ADME; conditions: mouse, liver microsomes, pH 7.4
quantity.measured: half-life at 1 μM (h)

[[record]]
compound = "CN1CCN(c2ccc(N/N=C(\\C#N)C(=O)c3cc4ccccc4o3)cc2C(F)(F)F)CC1"
reported_relation = "="
reading = 0.585

[[record]]
compound = "CN1CCN(c2cc(N/N=C(\\C#N)C(=O)c3cc4ccccc4o3)cc(C(F)(F)F)c2)CC1"
reported_relation = "="
reading = 1.22

[[record]]
compound = "N#C/C(=N\\Nc1ccc(N2CCOCC2)c(C(F)(F)F)c1)C(=O)c1cc2ccccc2o1"
reported_relation = ">"
reading = 2


---

assay: Hepatic microsomal stability; format: in vitro ADME; conditions: mouse, liver microsomes, pH 7.4
Reported half-life at 1 μM values are given for each entry in this list.
quantity.measured: half-life at 1 μM (min)

[[record]]
compound = "CCN1CCN(Cc2ccc(N/N=C(\\C#N)C(=O)c3cc4ccccc4o3)cc2C(F)(F)F)CC1"
reading = 29.9

[[record]]
compound = "N#C/C(=N\\Nc1cc(F)cc(C(F)(F)F)c1)C(=O)c1cc2ccccc2o1"
reading = 8.6

[[record]]
compound = "Cc1cn(-c2cc(N/N=C(\\C#N)C(=O)c3cc4ccccc4o3)cc(C(F)(F)F)c2)cn1"
reading = 64.8

[[record]]
compound = "N#C/C(=N\\Nc1ccc(F)c(C(F)(F)F)c1)C(=O)c1cc2ccccc2o1"
reading = 7.6


---

test: Pharmacokinetic study in mice; settings: female, C57BL/6, mouse, plasma, intraperitoneal, 20 mg/kg
quantity.measured: concentration at 12 h

[[record]]
compound = "Cc1cn(-c2cc(N/N=C(\\C#N)C(=O)c3cc4ccccc4o3)cc(C(F)(F)F)c2)cn1"
reading = "2900 nM"


---

assay: Plasma-protein binding; type: in vitro ADME
quantity.measured: fraction unbound

[[record]]
compound = "Cc1cn(-c2cc(N/N=C(\\C#N)C(=O)c3cc4ccccc4o3)cc(C(F)(F)F)c2)cn1"
reading = "< 0.001"


---

assay: Pharmacokinetic study in mice; conditions: female, C57BL/6, mouse, liver, intraperitoneal, 20 mg/kg
quantity.measured: concentration at 4 h (µM)

[[record]]
compound = "Cc1cn(-c2cc(N/N=C(\\C#N)C(=O)c3cc4ccccc4o3)cc(C(F)(F)F)c2)cn1"
quantity_measured = "concentration at 4 h"
reading = 37.2

